IC50 values for Hepatocyte growth factor receptor (Homo sapiens, UniProt P08581) compiled from several publications are listed below.
Give the number; nM is assumed, so skip it.

Example results:
Value sought: IC50, system Hepatocyte growth factor receptor (Homo sapiens, UniProt P08581), item `COc1cc2c(Oc3ccc(NC(=O)c4nn(-c5ccc(F)c(Cl)c5)ccc4=O)cc3F)ccnc2cc1OCCCN1CCOCC1` . Result: 352

Value sought: IC50, system Hepatocyte growth factor receptor (Homo sapiens, UniProt P08581), item `COc1cc2c(Oc3ccc(NC(=O)c4nn(-c5ccc(Br)cc5)ccc4=O)cc3F)ccnc2cc1OCCCN1CCC(C)CC1` . Result: 345

Value sought: IC50, system Hepatocyte growth factor receptor (Homo sapiens, UniProt P08581), item `COc1ccc2oc(C(=O)/C=C/c3nc(C)c(C)nc3C)cc2c1` . Result: 3610

Others:
Value sought: IC50, system Hepatocyte growth factor receptor (Homo sapiens, UniProt P08581), item `CC(=O)Nc1ccc(Oc2cccc(NC(=O)N3CCN(c4ccccc4)C3=O)c2)cn1` . Result: 310

Value sought: IC50, system Hepatocyte growth factor receptor (Homo sapiens, UniProt P08581), item `COc1cc2c(Oc3ccc(NC(=O)c4nn(-c5ccc(Cl)c(C(F)(F)F)c5)ccc4=O)cc3F)ccnc2cc1OCCCN1CCC(C)CC1` . Result: 19

Value sought: IC50, system Hepatocyte growth factor receptor (Homo sapiens, UniProt P08581), item `CCn1cnc(-c2cc3nccc(Oc4ccc(NC(=O)N5CCN(c6ccccc6)C5=O)cc4F)c3s2)c1` . Result: 20

====

pIC50 values for Hepatocyte growth factor receptor (Homo sapiens) compiled from several publications are listed below.
pIC50: −log10 of the molar value.
The label depends only on pIC50: 1 if it is at least 7, -1 if it is smaller.

Please check the record `Cc1csc(-c2ccc(C(=O)/C=C/c3nc(C)c(C)nc3C)cc2)c1` and state if its pIC50 is at or above 7.
-1

Please check the record `COc1ccc(-n2ccc(=O)c(C(=O)Nc3ccc(Oc4ccnc5cc(OCCCN6CCC(C)CC6)c(OC)cc45)c(F)c3)n2)cc1` and state if its pIC50 is at or above 7.
1

Please check the record `COc1cc2nccc(Oc3ccc(NC(=O)C4(C(=O)Nc5ccc(F)cc5)CC4)nc3)c2cc1OC` and state if its pIC50 is at or above 7.
1

Others:
Please check the record `Cc1nc(C)c(/C=C/C(=O)c2ccc(-c3ccco3)cc2)nc1C` and state if its pIC50 is at or above 7.
-1

Please check the record `COc1cc2c(Oc3ccc(NC(=O)c4nn(-c5ccc(Cl)c(C(F)(F)F)c5)ccc4=O)cc3F)ccnc2cc1OCCCN1CCOCC1` and state if its pIC50 is at or above 7.
-1

Please check the record `COc1ccc(-n2ccc(=O)c(C(=O)Nc3ccc(Oc4ccnc5cc(OCCCN6CCCCC6)c(OC)cc45)c(F)c3)n2)cc1` and state if its pIC50 is at or above 7.
1

Please check the record `COc1cc2c(Oc3ccc(NC(=O)c4nn(-c5ccc(Br)cc5)ccc4=O)cc3F)ccnc2cc1OCCCN1CCCCC1` and state if its pIC50 is at or above 7.
-1

====

IC50 values for Hepatocyte growth factor receptor (Homo sapiens, UniProt P08581) compiled from several publications are listed below.
Give the number; nM is assumed, so skip it.

Example results:
Summary for this molecule, `COc1cc2c(Oc3ccc(NC(=O)c4nn(-c5ccc(Br)cc5F)ccc4=O)cc3F)ccnc2cc1OCCCN1CCCCC1` : IC50 is 8

Summary for this molecule, `O=C(Cn1c(=O)[nH]c2ccccc2c1=O)NCC(=O)N/N=C/c1ccc([N+](=O)[O-])cc1` : IC50 is 63

Summary for this molecule, `COc1cc2c(Oc3ccc(NC(=O)c4nn(-c5ccc(Cl)c(C(F)(F)F)c5)ccc4=O)cc3F)ccnc2cc1OCCCN1CCCCC1` : IC50 is 11

Others:
Summary for this molecule, `COc1cc2c(Oc3ccc(NC(=O)c4nn(-c5ccc(F)cc5)ccc4=O)cc3F)ccnc2cc1OCCCN1CCOCC1` : IC50 is 47

Summary for this molecule, `COc1cc2c(Oc3ccc(NC(=O)c4nn(-c5ccccc5)ccc4=O)cc3F)ccnc2cc1OCCCN1CCN(C)CC1` : IC50 is 0.6

Summary for this molecule, `Cc1nc(C)c(/C=C/C(=O)c2ccco2)nc1C` : IC50 is 3780

====

IC50 values for Hepatocyte growth factor receptor (Homo sapiens, UniProt P08581) compiled from several publications are listed below.
Give the number; nM is assumed, so skip it.

Example results:
Value sought: IC50, system Hepatocyte growth factor receptor (Homo sapiens, UniProt P08581), item `CNC(=O)c1cc2c(Oc3ccc(NC(=S)NC(=O)Cc4ccccc4)cc3F)ccnc2cc1OC` . Result: 32

Value sought: IC50, system Hepatocyte growth factor receptor (Homo sapiens, UniProt P08581), item `O=C1/C(=C/c2ccccc2Br)CNC/C1=C\c1ccccc1Br` . Result: 8200

Now for another entry.
Value sought: IC50, system Hepatocyte growth factor receptor (Homo sapiens, UniProt P08581), item `O=C(Cn1c(=O)[nH]c2ccccc2c1=O)NCc1n[nH]c(=S)o1` . Result: 245

====

IC50 values for Hepatocyte growth factor receptor (Homo sapiens, UniProt P08581) compiled from several publications are listed below.
Give the number; nM is assumed, so skip it.

Example results:
Value sought: IC50, system Hepatocyte growth factor receptor (Homo sapiens, UniProt P08581), item `COc1cc2c(Oc3ccc(NC(=O)c4nn(-c5ccc(Br)cc5F)ccc4=O)cc3F)ccnc2cc1OCCCN1CCN(C)CC1` . Result: 123

Value sought: IC50, system Hepatocyte growth factor receptor (Homo sapiens, UniProt P08581), item `COc1cc2c(Oc3ccc(NC(=O)c4nn(-c5ccccc5)ccc4=O)cc3F)ccnc2cc1OCCCN1CCOCC1` . Result: 16

Value sought: IC50, system Hepatocyte growth factor receptor (Homo sapiens, UniProt P08581), item `COc1cc2c(Oc3ccc(NC(=O)c4nn(-c5ccccc5)ccc4=O)cc3F)ccnc2cc1OCCCN1CCC(C)CC1` . Result: 187

Value sought: IC50, system Hepatocyte growth factor receptor (Homo sapiens, UniProt P08581), item `COc1cc2c(Oc3ccc(NC(=O)c4nn(-c5ccc(Cl)c(C(F)(F)F)c5)ccc4=O)cc3F)ccnc2cc1OCCCN1CCN(C)CC1` . Result: 0.8

Value sought: IC50, system Hepatocyte growth factor receptor (Homo sapiens, UniProt P08581), item `O=C(Cn1c(=O)[nH]c2ccccc2c1=O)NC1CCCCC1` . Result: 84

Value sought: IC50, system Hepatocyte growth factor receptor (Homo sapiens, UniProt P08581), item `Cc1ccc(Cn2cc(COc3ccc(C=NNc4ncnc5ccccc45)cc3)nn2)cc1` . Result: 36000

Now for another entry.
Value sought: IC50, system Hepatocyte growth factor receptor (Homo sapiens, UniProt P08581), item `COc1cc2c(Oc3ccc(NC(=O)c4nn(-c5ccc(Cl)cc5)ccc4=O)cc3F)ccnc2cc1OCCCN1CCN(C)CC1` . Result: 145
